# Test system: corn
# experimental protocol: Upland soil treatment test (6), phytotoxicity; note: ranges in brackets are in %
# Format: in vivo
# applied conditions: 100 g/hectare, 20th day after treatment
Assignment: determine reported Phytotoxicity to corn for the given compounds.

Form field: Phytotoxicity to corn recorded for Cc1ccc(S(=O)(=O)Oc2c(C(=O)c3cc(C)c4c(c3C)C(C)(C)CCS4)c(C)nn2C)cc1 with corn (enter value)
0 (100)

Next up: CCn1ncc(C(=O)c2cc(C)c3c(c2C)C(C)CCS3(=O)=O)c1OS(=O)(=O)c1ccc(C)cc1 (stereo not shown)
0 (100)

Next up: CCn1ncc(C(=O)c2ccc3c(c2C)CCCS3(=O)=O)c1O
0 (100)

Next up: CCn1ncc(C(=O)c2ccc(S(C)(=O)=O)c(C(=O)OC)c2Cl)c1O [Comp'd A, reference compound]
0 (100)

Next up: CCn1ncc(C(=O)c2cc(C)c3c(c2C)C(C)CCS3(=O)=O)c1O (stereo not shown)
0 (100)

Next up: CCCS(=O)(=O)Oc1c(C(=O)c2cc(C)c3c(c2C)C(C)CCS3(=O)=O)cnn1CC (stereo not shown)
0 (100)

Next up: CCCS(=O)(=O)Oc1c(C(=O)c2cc(C)c3c(c2C)C(C)(C)CCS3(=O)=O)c(C)nn1C
0 (100)

---

Assignment: determine reported melting point for the given compounds.

Recorded melting point for CCn1ncc(C(=O)c2cc(C)c3c(c2C)C(C)(C)CCS3)c1OS(=O)(=O)CC , please?
164.1 to 165.7 °C

Next up: CCC(=O)Oc1c(C(=O)c2cc(C)c3c(c2C)C(C)(C)CCS3)cnn1CC
178 to 179.6 °C

Next up: CCn1ncc(C(=O)c2cc(C)c3c(c2C)C(C)(C)CCS3)c1OC(=O)c1ccc(Cl)cc1Cl
165.2 to 169 °C

Next up: CCn1ncc(C(=O)c2cc(C)c3c(c2C)C(C)(C)CCS3(=O)=O)c1O
208.8 to 209.3 °C

Next up: CCn1ncc(C(=O)c2cc(C)c3c(c2C)C(C)(C)CCS3(=O)=O)c1OC(C)=O
187.7 to 191.4 °C

Next up: CCn1ncc(C(=O)c2cc(Cl)c3c(c2Cl)C(C)(C)CCS3)c1O
263.7 to 263.9 °C

Next up: CCn1ncc(C(=O)c2cc(C)c3c(c2C)C(C)(C)CCS3(=O)=O)c1OS(C)(=O)=O
202.2 to 203.4 °C

---

# Tested on: barnyard grass
# experimental protocol: Submergence soil treatment test (4); note: ranges in brackets are in %
# Assay type: in vivo
# applied conditions: dosage 1 g a.i./10 are, twenty days after treatment
Assignment: determine reported Herbicidal Effficacy barnyard grass for the given compounds.

Recorded Herbicidal Effficacy barnyard grass for CCCCCCCCS(=O)(=O)Oc1c(C(=O)c2cc(C)c3c(c2C)C(C)(C)CCS3(=O)=O)cnn1CC [Compound 11] , please?
5 (0)

Next up: CCn1ncc(C(=O)c2cc(C)c3c(c2C)C(C)(C)CCS3(=O)=O)c1OS(=O)(=O)c1ccccc1C [Compound 16]
5 (0)

Next up: CCn1ncc(C(=O)c2cc(C)c3c(c2C)C(C)(C)CCS3(=O)=O)c1OS(=O)(=O)c1ccc(OC)cc1 [Compound 14]
5 (0)

Next up: CCn1ncc(C(=O)c2ccc(S(C)(=O)=O)c(C(=O)OC)c2Cl)c1O [Comp'd A, reference compound]
1 (61-80)

Next up: CCCCS(=O)(=O)Oc1c(C(=O)c2cc(C)c3c(c2C)C(C)(C)CCS3(=O)=O)cnn1CC [Compound 10]
5 (0)
